# tested-system: kinases (Homo sapiens, UniProt P00519, T315I)
# Construct: purchased Eurofins/DiscoveRx; host or cells: E. coli BL21-derived host (T7 phage display) for most kinases; HEK-293 for the rest
# experimental-protocol: KINOMEscan kinase binding assay (Eurofins/DiscoveRx), % Ctrl
# assay-conditions: target ABL1(T315I)-phosphorylated; 1 μM
Please use t whenever % Ctrl, ABL1(T315I)-phosphorylated is not below 30 % Ctrl, and f whenever it is.

% Ctrl, ABL1(T315I)-phosphorylated >= 30 % Ctrl for `CN1CCSCCOc2cc3c(cc2Cl)NC(=O)/C3=C\c2[nH]ccc2C1=O` ?
f

% Ctrl, ABL1(T315I)-phosphorylated >= 30 % Ctrl for `Cc1cc2c([nH]1)/C=C1\C(=O)Nc3ccc(cc31)-c1c(C)nn(C)c1COCCN(C)C2=O` ?
t

% Ctrl, ABL1(T315I)-phosphorylated >= 30 % Ctrl for `CN1CCOCCOc2cc3c(cc2Cl)NC(=O)/C3=C\c2[nH]ccc2C1=O` ?
f

% Ctrl, ABL1(T315I)-phosphorylated >= 30 % Ctrl for `Cc1nn(C)c2c1-c1ccc3c(c1)/C(=C/c1[nH]ccc1C(=O)N(C)CCCO2)C(=O)N3` ?
t

% Ctrl, ABL1(T315I)-phosphorylated >= 30 % Ctrl for `Cc1cc2c([nH]1)/C=C1\C(=O)Nc3cnc(cc31)-c1cn[nH]c1CNCCN(C)C2=O` ?
f

% Ctrl, ABL1(T315I)-phosphorylated >= 30 % Ctrl for `Cc1cc2c([nH]1)/C=C1\C(=O)Nc3ccc(cc31)-c1c(noc1C)CNCCN(C)C2=O` ?
f

% Ctrl, ABL1(T315I)-phosphorylated >= 30 % Ctrl for `Cc1cc2c([nH]1)/C=C1\C(=O)Nc3cc(Cl)c(cc31)OCCO[C@@H](C(=O)N1CCN(C)CC1)CN(C)C2=O` ?
t

---

Provide the reported % Ctrl, ABL1(Q252H)-nonphosphorylated of each item.
# tested-system: kinases (Homo sapiens, UniProt P00519, Q252H)
# Construct: purchased Eurofins/DiscoveRx; host or cells: E. coli BL21-derived host (T7 phage display) for most kinases; HEK-293 for the rest
# experimental-protocol: KINOMEscan kinase binding assay (Eurofins/DiscoveRx), % Ctrl
# assay-conditions: 1 μM; ABL1(Q252H)-nonphosphorylated
Provide only the numeric value, understood in % Ctrl.

Give recorded % Ctrl, ABL1(Q252H)-nonphosphorylated. `Cc1cc2c([nH]1)/C=C1\C(=O)Nc3ccc(cc31)O[C@@H](C)COCCN(C)C2=O`
0

Give recorded % Ctrl, ABL1(Q252H)-nonphosphorylated. `Cc1cc2c([nH]1)/C=C1\C(=O)Nc3cc(Cl)c(cc31)OCCO[C@@H](C(=O)NC1CNC1)CN(C)C2=O`
61

Give recorded % Ctrl, ABL1(Q252H)-nonphosphorylated. `Cc1cc2c([nH]1)/C=C1\C(=O)Nc3ccc(cc31)-c1ccnn1CCOCCN(C)C2=O`
9

Give recorded % Ctrl, ABL1(Q252H)-nonphosphorylated. `Cc1cc2c([nH]1)/C=C1\C(=O)Nc3ccc(cc31)OCCOCCN(C)C2=O`
2.8

Give recorded % Ctrl, ABL1(Q252H)-nonphosphorylated. `Cc1cc2c([nH]1)/C=C1\C(=O)Nc3cnc(nc31)N(C)CCCOCCN(C)C2=O`
97

Give recorded % Ctrl, ABL1(Q252H)-nonphosphorylated. `Cc1cc2c([nH]1)/C=C1\C(=O)Nc3ccc(cc31)-c1cnn(C)c1CNCCN(C)C2=O`
0

Give recorded % Ctrl, ABL1(Q252H)-nonphosphorylated. `Cc1cc2c([nH]1)/C=C1\C(=O)Nc3ccc(cc31)OCCOCCNC2=O`
87

Give recorded % Ctrl, ABL1(Q252H)-nonphosphorylated. `Cc1cc2c([nH]1)/C=C1\C(=O)Nc3ccc(cc31)-c1c(C)n[nH]c1CNCCN(C)C2=O`
0

Give recorded % Ctrl, ABL1(Q252H)-nonphosphorylated. `CNC(=O)[C@H]1CN(C)C(=O)c2cc(C)[nH]c2/C=C2\C(=O)Nc3cc(Cl)c(cc32)OCCO1`
43

Give recorded % Ctrl, ABL1(Q252H)-nonphosphorylated. `Cc1cc2c([nH]1)/C=C1\C(=O)Nc3ccc(cc31)-c1ccnn1CCOCCNC2=O`
84

Give recorded % Ctrl, ABL1(Q252H)-nonphosphorylated. `Cc1cc2c([nH]1)/C=C1\C(=O)Nc3ccc(cc31)CN(C)C(=O)COCCNC2=O`
75

Give recorded % Ctrl, ABL1(Q252H)-nonphosphorylated. `Cc1cc2c([nH]1)/C=C1\C(=O)Nc3ccc(nc31)-c1ccccc1OCCCNC2=O`
87

Give recorded % Ctrl, ABL1(Q252H)-nonphosphorylated. `Cc1cc2c([nH]1)/C=C1\C(=O)Nc3ccc(cc31)-c1cnn(C)c1CN(C)CCN(C)C2=O`
1.7

Give recorded % Ctrl, ABL1(Q252H)-nonphosphorylated. `Cc1cc2c([nH]1)/C=C1\C(=O)Nc3cc(Cl)c(cc31)OCCO[C@@H](C(=O)N[C@@H]1CCNC1)CN(C)C2=O`
24

Give recorded % Ctrl, ABL1(Q252H)-nonphosphorylated. `Cc1cc2c([nH]1)/C=C1\C(=O)Nc3ccc(cc31)-c1c(noc1C)COCCN(C)C2=O`
57

Give recorded % Ctrl, ABL1(Q252H)-nonphosphorylated. `Cc1cc2c([nH]1)/C=C1\C(=O)Nc3cc(Cl)c(cc31)OCCO[C@@H](C(=O)NC1CCNCC1)CN(C)C2=O`
32

Give recorded % Ctrl, ABL1(Q252H)-nonphosphorylated. `Cc1cc2c([nH]1)/C=C1\C(=O)Nc3cc(Cl)c(cc31)OCCO[C@@H](C(=O)N(C)C)CN(C)C2=O`
48

---

# tested-system: kinases (Homo sapiens, UniProt P42684)
# Construct: purchased Eurofins/DiscoveRx; host or cells: E. coli BL21-derived host (T7 phage display) for most kinases; HEK-293 for the rest
# Sequence (P42684 whole entry): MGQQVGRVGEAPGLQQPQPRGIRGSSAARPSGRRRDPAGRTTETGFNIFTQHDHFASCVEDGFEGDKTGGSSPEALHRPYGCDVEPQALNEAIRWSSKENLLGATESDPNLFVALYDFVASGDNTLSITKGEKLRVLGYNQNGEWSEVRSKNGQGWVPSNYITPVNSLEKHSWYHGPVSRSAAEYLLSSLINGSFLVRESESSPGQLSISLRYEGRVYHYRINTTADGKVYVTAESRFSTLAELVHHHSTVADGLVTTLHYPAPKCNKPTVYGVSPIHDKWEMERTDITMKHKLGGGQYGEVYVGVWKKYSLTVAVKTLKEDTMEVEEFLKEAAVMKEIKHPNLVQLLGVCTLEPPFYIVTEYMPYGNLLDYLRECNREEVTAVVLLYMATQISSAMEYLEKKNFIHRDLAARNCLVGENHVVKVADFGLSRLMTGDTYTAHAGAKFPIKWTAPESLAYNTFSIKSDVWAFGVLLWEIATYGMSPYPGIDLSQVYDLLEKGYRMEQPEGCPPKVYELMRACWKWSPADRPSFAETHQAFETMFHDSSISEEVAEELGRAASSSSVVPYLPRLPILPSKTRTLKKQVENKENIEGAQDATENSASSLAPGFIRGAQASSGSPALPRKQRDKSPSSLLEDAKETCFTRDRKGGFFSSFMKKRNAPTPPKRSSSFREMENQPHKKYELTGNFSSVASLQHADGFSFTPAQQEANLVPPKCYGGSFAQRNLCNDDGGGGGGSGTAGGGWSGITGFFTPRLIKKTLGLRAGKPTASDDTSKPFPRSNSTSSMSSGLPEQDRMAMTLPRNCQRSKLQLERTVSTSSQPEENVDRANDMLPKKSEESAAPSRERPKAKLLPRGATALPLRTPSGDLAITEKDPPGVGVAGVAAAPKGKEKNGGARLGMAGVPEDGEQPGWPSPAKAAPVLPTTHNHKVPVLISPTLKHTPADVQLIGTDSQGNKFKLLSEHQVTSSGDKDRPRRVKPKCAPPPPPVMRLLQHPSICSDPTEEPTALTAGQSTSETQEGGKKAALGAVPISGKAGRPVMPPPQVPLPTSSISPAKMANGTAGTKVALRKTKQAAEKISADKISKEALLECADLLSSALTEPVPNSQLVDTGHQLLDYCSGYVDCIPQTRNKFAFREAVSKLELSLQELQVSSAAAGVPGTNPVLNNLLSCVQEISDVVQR
# experimental-protocol: KINOMEscan kinase binding assay (Eurofins/DiscoveRx), % Ctrl
# assay-conditions: 1 μM; ABL2
Provide the reported % Ctrl, ABL2 of each item.
Provide only the numeric value, understood in % Ctrl.

Give recorded % Ctrl, ABL2. Cc1cc2c([nH]1)/C=C1\C(=O)Nc3ccc(cc31)-c1ccnn1CCNCCNC2=O [Ex. 43]
100

Give recorded % Ctrl, ABL2. Cc1cc2c([nH]1)/C=C1\C(=O)Nc3ccc(nc31)-c1ccccc1OCCCNC2=O [Ex.22]
95

Give recorded % Ctrl, ABL2. Cc1cc2c([nH]1)/C=C1\C(=O)Nc3ccc(cc31)-c1c(C)n[nH]c1CNCCN(C)C2=O [Ex. 127]
6.9

Give recorded % Ctrl, ABL2. Cc1cc2c([nH]1)/C=C1\C(=O)Nc3cc(Cl)c(cc31)OCCOCCN(C)C2=O [Ex. 131]
1.8

Give recorded % Ctrl, ABL2. Cc1cc2c([nH]1)/C=C1\C(=O)Nc3ccc(cc31)-c1cnn(C)c1CNCCN(C)C2=O [Ex. 125]
2.2

Give recorded % Ctrl, ABL2. Cc1cc2c([nH]1)/C=C1\C(=O)Nc3cnc(nc31)N(C)CCCOCCN(C)C2=O [Ex.71]
100

Give recorded % Ctrl, ABL2. Cc1cc2c([nH]1)/C=C1\C(=O)Nc3ccc(cc31)CN(C)C(=O)COCCNC2=O [Ex.111]
100

Give recorded % Ctrl, ABL2. Cc1cc2c([nH]1)/C=C1\C(=O)Nc3ccc(cc31)OCCOCCN(C)C2=O [Ex.91]
32

---

Provide the reported % Ctrl, FLT3(ITD) of each item.
# Test system: kinases
# experimental-protocol: KINOMEscan kinase binding assay (Eurofins/DiscoveRx), % Ctrl
# assay-conditions: 1 μM; target FLT3(ITD)
Provide only the numeric value, understood in % Ctrl.

Give recorded % Ctrl, FLT3(ITD). `Cc1cc2c([nH]1)/C=C1\C(=O)Nc3cnc(cc31)-c1cnn(C)c1CN(C)CCN(C)C2=O`
1.1

Give recorded % Ctrl, FLT3(ITD). `Cc1cc2c([nH]1)/C=C1\C(=O)Nc3ccc(cc31)-c1cnn(C)c1OCCCN(C)C2=O`
0.3

Give recorded % Ctrl, FLT3(ITD). `CN1CCOc2cc3c(cc2Cl)NC(=O)/C3=C\c2[nH]ccc2C(=O)N(C)CC1`
0.9

Give recorded % Ctrl, FLT3(ITD). `Cc1cc2c([nH]1)/C=C1\C(=O)Nc3cc(Cl)c(cc31)SCCOCCN(C)C2=O`
0.9

Give recorded % Ctrl, FLT3(ITD). `Cc1cc2c([nH]1)/C=C1\C(=O)Nc3ccc(cc31)-c1c(noc1C(C)C)COCCN(C)C2=O`
85

---

# tested-system: kinases (Homo sapiens, UniProt P36888, K663Q)
# Construct: purchased Eurofins/DiscoveRx; host or cells: E. coli BL21-derived host (T7 phage display) for most kinases; HEK-293 for the rest
# experimental-protocol: KINOMEscan kinase binding assay (Eurofins/DiscoveRx), % Ctrl
# assay-conditions: 1 μM; FLT3(K663Q)
property: % Ctrl, FLT3(K663Q) (% Ctrl)
Provide only the numeric value, understood in % Ctrl.

For kinases (Homo sapiens, UniProt P36888, K663Q), give % Ctrl, FLT3(K663Q) of the listed compound: Cc1cc2c([nH]1)/C=C1\C(=O)Nc3ccc(cc31)-c1cnn(C)c1CNCCN(C)C2=O [Ex. 125]
1.4

For kinases (Homo sapiens, UniProt P36888, K663Q), give % Ctrl, FLT3(K663Q) of the listed compound: Cc1cc2c([nH]1)/C=C1\C(=O)Nc3ccc(cc31)-c1cnn(C)c1COCCN(C)C2=O [Ex. 124]
13

For kinases (Homo sapiens, UniProt P36888, K663Q), give % Ctrl, FLT3(K663Q) of the listed compound: Cc1cc2c([nH]1)/C=C1\C(=O)Nc3ccc(cc31)OCCOCCN(C)C2=O [Ex.91]
63

For kinases (Homo sapiens, UniProt P36888, K663Q), give % Ctrl, FLT3(K663Q) of the listed compound: Cc1cc2c([nH]1)/C=C1\C(=O)Nc3ccc(cc31)CN(C)C(=O)COCCNC2=O [Ex.111]
44

For kinases (Homo sapiens, UniProt P36888, K663Q), give % Ctrl, FLT3(K663Q) of the listed compound: Cc1cc2c([nH]1)/C=C1\C(=O)Nc3ccc(cc31)-c1ccnn1CCOCCNC2=O [Ex.39]
100
